Data credit: BindingDB's records for doi:10.1007/s00044-010-9334-1

# METHOD: Inhibition of microtubule polymerisation in Rattus norvegicus (rat) A10 cells
RESULT TYPE: EC50 (µM)
Numbers only, in µM.

{"COMPOUND": "COc1ccc(C2C=C(c3cc(OC)c(OC)c(OC)c3)NC(=S)N2)cc1O (configuration not stated)", "UNITS TEXT": "µM", "EC50": 4.4}

Moving on to the next compound.
Ask: Field request: EC50 | item: COc1cc(OC)c(C2C=C(c3cc(OC)ccc3OC)NC(=S)N2)c(OC)c1 (configuration not stated)
Result: 2.9
